Data provenance: ChEMBL document CHEMBL3232922

assay: Half life in beagle dog at 2 mg/kg, iv; type: ADME, organism-based, Canis lupus familiaris; parameters: dose 2 mg/kg, route intravenous; details: in vivo
QUANTITY_NAME: half-life
Answer format: number, then unit.

Field: example entries. Status: answers known.
{"columns": ["COMPOUND", "QUANTITY_NAME", "EXPERIMENTAL_RESULT"],
 "data": [
  ["CN[C@@H]1CCN(c2cc(Cc3ccccc3)nc(N)n2)C1", "half-life", "9.3 h"],
  ["CC(C)c1cc(N2CC[C@@H](N)C2)nc(N)n1 [JNJ-39758979]", "half-life", "10.2 h"]
]}

Now, please, on to the next compound.
Lookup: Quick check: half-life of Nc1nc(C2CCCC2)cc(N2CCNCC2)n1 ?
Found: 10.8 h

====

biological target: Histamine H4 receptor (Homo sapiens, UniProt Q9H3N8); test: Antagonist activity at human histamine H4 receptor expressed in SK-N-MC cells assessed as reduction of histamine-induced inhibition of cAMP-mediated beta-galactosidase reporter gene activity treated 10 mins prior to histamine challenge by microplate reader analysis; assay type: functional, cell-based; details: read-out: pA2 (converted)
Sequence (Q9H3N8 whole entry): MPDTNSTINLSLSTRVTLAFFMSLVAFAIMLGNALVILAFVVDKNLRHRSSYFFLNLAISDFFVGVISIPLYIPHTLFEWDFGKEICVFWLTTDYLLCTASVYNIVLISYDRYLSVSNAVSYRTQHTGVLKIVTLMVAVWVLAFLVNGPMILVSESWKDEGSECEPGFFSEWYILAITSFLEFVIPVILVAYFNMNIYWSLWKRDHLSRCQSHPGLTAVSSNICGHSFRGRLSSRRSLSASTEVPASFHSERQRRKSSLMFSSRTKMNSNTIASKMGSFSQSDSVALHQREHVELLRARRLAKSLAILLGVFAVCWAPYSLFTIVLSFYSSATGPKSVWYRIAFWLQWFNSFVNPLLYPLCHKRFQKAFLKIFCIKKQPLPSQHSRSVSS
QUANTITY_NAME: Kb (nM)
# output: bare number, implied unit nM

Lookup: For the molecule shown here, CN[C@H]1CN(c2cc(C3CCCC3)nc(N)n2)C[C@@H]1O (relative stereo) , give the reported Kb.
Found: 10

====

We begin with a simple list: items and their reported AUC.
experiment: AUC in Sprague-Dawley rat at 2 mg/kg, iv; type: ADME, organism-based; design: dose 2 mg/kg, route intravenous; conditions: plasma
Provide only the numeric value, understood in µM·h.

Lookup: Using the record for Nc1nc(C2CCCC2)cc(N2CCNCC2)n1 , report its AUC.
Found: 20.6

Lookup: If you can, please state the reported AUC value of CN[C@@H]1CCN(c2cc(Cc3ccccc3)nc(N)n2)C1 .
Found: 11

Lookup: What value of measured AUC is listed for CC(C)c1cc(N2CC[C@@H](N)C2)nc(N)n1 [JNJ-39758979] ?
Found: 1.4

====

test: AUC in Sprague-Dawley rat at 500 mg/kg, po; assay type: ADME, organism-based; design: dose 500 mg/kg, route oral; conditions: plasma
QUANTITY_NAME: AUC (µM·h)
Respond numerically; units are µM·h and should not be typed.

Lookup: Report AUC for CC(C)c1cc(N2CC[C@@H](N)C2)nc(N)n1 [JNJ-39758979] please.
Found: 184

====

assay: Initial plasma concentration in Balb/c mouse at 2 mg/kg, iv; format: ADME, organism-based; design: dose 2 mg/kg, route intravenous
QUANTITY_NAME: C0 (nM)
Value expressed in nM; do not type the unit.

Lookup: Name the recorded C0 for CC(C)c1cc(N2CC[C@@H](N)C2)nc(N)n1 .
Found: 1020

====

target: Histamine H4 receptor (Homo sapiens, UniProt Q9H3N8); test: Agonist activity at human H4 receptor; details: read-out: EC50
Listed below: EC50 values for each entry.

{"columns": ["MOLECULE", "QUANTITY_NAME", "EXPERIMENTAL_RESULT"],
 "data": [
  ["Nc1nc(C2CCCC2)cc(N2C[C@H]3CCN[C@H]3C2)n1", "EC50", "> 10 µM"],
  ["CN[C@@H]1CCN(c2cc(C34CC5CC(CC(C5)C3)C4)nc(N)n2)C1", "EC50", "> 10 µM"],
  ["CCc1cc(N2CC[C@@H](N)C2)nc(N)n1", "EC50", "> 10 µM"],
  ["CCCCc1cc(N2CC[C@@H](NC)C2)nc(N)n1", "EC50", "> 10 µM"],
  ["CN[C@@H]1CCN(c2cc(C(C)C)nc(N)n2)C1", "EC50", "> 10 µM"]
]}

Alright, here's another molecule for you.
Lookup: Any idea what its EC50 is? The molecule is CN[C@H]1CCN(c2cc(C3CCCC3)nc(N)n2)C1
Found: > 10 µM

====

biological target: Histamine H4 receptor (Rattus norvegicus, UniProt Q91ZY1)
Sequence (Q91ZY1 whole entry): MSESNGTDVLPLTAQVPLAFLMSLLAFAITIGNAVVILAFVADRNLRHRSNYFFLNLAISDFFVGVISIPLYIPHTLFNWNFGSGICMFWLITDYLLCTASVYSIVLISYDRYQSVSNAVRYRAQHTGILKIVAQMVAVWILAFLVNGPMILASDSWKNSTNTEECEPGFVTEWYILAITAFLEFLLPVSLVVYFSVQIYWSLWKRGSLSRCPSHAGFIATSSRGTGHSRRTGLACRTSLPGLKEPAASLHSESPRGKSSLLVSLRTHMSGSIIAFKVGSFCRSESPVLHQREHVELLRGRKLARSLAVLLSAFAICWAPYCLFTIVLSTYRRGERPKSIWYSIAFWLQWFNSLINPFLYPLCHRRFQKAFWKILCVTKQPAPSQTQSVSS
QUANTITY_NAME: Ki (nM)
Express it in nM; write the number only.

Lookup: Record lookup: for Histamine H4 receptor (Rattus norvegicus, UniProt Q91ZY1), what Ki belongs to CC(C)c1cc(N2CC[C@@H](N)C2)nc(N)n1 ?
Found: 188

====

assay: AUC in Balb/c mouse at 2 mg/kg, iv; type: ADME, organism-based; parameters: dose 2 mg/kg, route intravenous; conditions: plasma
QUANTITY_NAME: AUC

Lookup: Requested read-out: AUC. Entry: CC(C)c1cc(N2CC[C@@H](N)C2)nc(N)n1
Found: 3.27 µM·h

====

experiment: Ratio of drug level in brain to plasma in mouse at 5 mg/kg, po administered as single dose […] by LC-MS/MS analysis; format: ADME, organism-based; parameters: dose 5 mg/kg, route oral; conditions: brain and plasma
QUANTITY_NAME: Kp
Answer with the value's number alone.

Lookup: Any idea what its Kp is? The molecule is CC(C)c1cc(N2CC[C@@H](N)C2)nc(N)n1 [JNJ-39758979]
Found: 22.7

====

assay: AUC in Sprague-Dawley rat at 200 mg/kg, po; type: ADME, organism-based; set-up: dose 200 mg/kg, route oral; details: plasma
QUANTITY_NAME: AUC (µM·h)
// units = µM·h; emit number, no label

Lookup: Fill blank: measured AUC of the compound CC(C)c1cc(N2CC[C@@H](N)C2)nc(N)n1 [JNJ-39758979] is ____.
Found: 71.2

====

experiment: Tmax in Sprague-Dawley rat at 50 mg/kg, po; assay type: ADME, organism-based; design: dose 50 mg/kg, route oral; settings: in vivo
QUANTITY_NAME: Tmax (h)
Express the result in h but write the number alone.

Lookup: # get_value(readout='Tmax', item= CC(C)c1cc(N2CC[C@@H](N)C2)nc(N)n1 )
Found: 2

====

test: Oral bioavailability in Sprague-Dawley rat at 50 mg/kg; assay type: ADME, organism-based; details: in vivo
QUANTITY_NAME: bioavailability (%)
Use % as the unit, but write only the number.

Lookup: Which bioavailability reading was recorded for the compound CC(C)c1cc(N2CC[C@@H](N)C2)nc(N)n1 ?
Found: 38

====

assay: Cmax in Balb/c mouse at 20 mg/kg, po; type: ADME, organism-based; design: dose 20 mg/kg, route oral; settings: in vivo
Recorded Cmax for the following compounds
Number only, in µM; omit the unit.

{"columns": ["ITEM_SMILES", "Cmax, µM"],
 "data": [
  ["CN[C@@H]1CCN(c2cc(Cc3ccccc3)nc(N)n2)C1", 8.5]
]}

Moving on to another compound below.
Lookup: Look up Cmax: CC(C)c1cc(N2CC[C@@H](N)C2)nc(N)n1
Found: 5.03

====

assay: Half life in dog liver microsomes; format: ADME, Canis lupus familiaris
QUANTITY_NAME: half-life

Lookup: Given the compound CC(C)c1cc(N2CC[C@@H](N)C2)nc(N)n1 [JNJ-39758979] , what is its reported half-life?
Found: > 2 h

====

Listed next: entries and their corresponding Kb.
target: UniProt Q9H3N8; experiment: Antagonist activity at human histamine H4 receptor expressed in SK-N-MC cells assessed as reduction of histamine-induced inhibition of cAMP-mediated beta-galactosidase reporter gene activity treated 10 mins prior to histamine challenge by microplate reader analysis; type: functional, cell-based; conditions: read-out: pA2 (converted)
The reply should contain only the number, in nM.

{"columns": ["MOLECULE", "EXPERIMENTAL_RESULT"],
 "data": [
  ["Nc1nc(C2CCCC2)cc(N2C[C@H]3NCCO[C@@H]3C2)n1 (racemic)", 126],
  ["CC(C)(C)c1cc(N2CC[C@@H](N)C2)nc(N)n1", 5.01],
  ["Nc1nc(C2CCCC2)cc(N2CCNCC2)n1", 0.316],
  ["CN[C@@H]1CCN(c2cc(C3CCCC3)nc(N)n2)C1", 0.251],
  ["CCc1cc(N2CC[C@@H](NC)C2)nc(N)n1", 10],
  ["CN[C@@H]1CCN(c2cc(C3CC3)nc(N)n2)C1", 7.94]
]}

Lookup: Which value of Kb has been reported for CN[C@@H]1CCN(c2nc(N)nc3c2CCCC3)C1 in the records?
Found: 25.1

Lookup: Returns the measured Kb for the input molecule. Input: Nc1nc(C2CCCC2)cc(N2CCC3(CCCN3)C2)n1 (configuration not stated)
Found: 2.51

Lookup: Item under review: CN[C@@H]1CCN(c2cc(C3CCC3)nc(N)n2)C1 . Reported Kb?
Found: 0.398

Lookup: Any idea what its Kb is? The molecule is CCc1cc(N2CC[C@@H](N)C2)nc(N)n1
Found: 12.6

Lookup: Using the record for CCCCc1cc(N2CC[C@@H](NC)C2)nc(N)n1 , report its Kb.
Found: 3.98
